Provide the reported solubility kinetic at 24 h of each item.
# measurement-notes: Aqueous kinetic solubility assay
# Type: physicochemical
# applied-conditions: phosphate buffered saline, aqueous buffer, kinetic from dmso stock, PBS pH 7.4, target 250 μM, 2.5% DMSO, 25° C.
The answer is to be given in µM; state only the numeric part.

Identify measured solubility kinetic at 24 h corresponding to NS(=O)(=O)c1cccc(-c2cccc(OC(=O)NC3CCCCC3)c2)c1 [[drawing 129] comparison compound, reference compound]
7

Identify measured solubility kinetic at 24 h corresponding to CNC(=O)c1cccc(-c2cc(OC(=O)NC3CCC3)ccc2F)c1
183

Identify measured solubility kinetic at 24 h corresponding to NC(=O)c1cccc(-c2cc(OC(=O)NC3CCC3)ccc2F)c1
33

Identify measured solubility kinetic at 24 h corresponding to CS(=O)(=O)c1cccc(-c2cc(OC(=O)NC3CCCCC3)ccc2OC(F)F)c1
12
